# System: mu opiate receptor (MOR)
# test-summary: MOR agonist activity using [35S]GTPγS binding assay in striatal membranes
# Format: biochemical
# test-conditions: 1 μM compound
compounds and their reported MOR agonist activity ([35S]GTPγS binding), FLNA-Binding Compound as Agonist 1 μM
# answer = value followed by unit

Solved entries (count: 3):
{"compound": "CCN(CC)CC(O)COC1CC(C)CCC1C(C)C (centres unmarked) [Compound A0032]", "tested-system": "mu opiate receptor (MOR)", "result": "257.8%"}
{"compound": "CC1CCC(C(C)C)C(OCC(O)CN2CC(C)OC(C)C2)C1 (centres unmarked) [Compound A0032-1]", "tested-system": "mu opiate receptor (MOR)", "result": "324.5%"}
{"compound": "CC1CN(CC(O)COc2ccccc2)CC(C)O1 (centres unmarked) [Compound A0025]", "tested-system": "mu opiate receptor (MOR)", "result": "138.7%"}

## Input Give mu opiate receptor (MOR) MOR agonist activity ([35S]GTPγS binding), FLNA-Binding Compound as Agonist 1 μM for CC1CCC(C(C)C)C(OCC(O)CN2CCSC2)C1 (centres unmarked) [Compound A0002]
## Output 199.4%

## Input Now the same for CC1CCC(C(C)C)C(OCC(O)CN2CCc3ccccc32)C1 (centres unmarked) [Compound A0065]
## Output 266.8%

## Input Now the same for CC1CCC(C(C)C)C(OCC(O)Cn2cccc2)C1 (centres unmarked) [Compound A0038]
## Output 234.5%

## Input Now the same for COc1ccc(OCC(O)CN2CC(C)OC(C)C2)cc1 (centres unmarked) [Compound A0048]
## Output 302.9%

## Input Now the same for CC1CN(CC(O)COc2cccc(C(F)(F)F)c2)CC(C)O1 (centres unmarked) [Compound A0051]
## Output 386.6%

## Input Now the same for CC1CCC(C(C)C)C(OCC(O)CN2CCC(=O)C(C)C2)C1 (centres unmarked) [Compound A0056]
## Output 129.6%

## Input Now the same for CC1CCC(C(C)C)C(OCC(O)CN2CCCC2=O)C1 (centres unmarked) [Compound A0035]
## Output 158.8%

* * *

compounds and their reported inhibition at 1 µM
# tested-system: FLNA pentapeptide of SEQ ID NO: 1 (Bn-VAKGL) (Homo sapiens, UniProt P21333)
# test-summary: FITC-NLX-based FLNA screening assay (inhibition of FITC-naloxone binding to Bn-VAKGL on streptavidin plates)
# test-conditions: FLNA-binding compound 1 μM; 10 nM FITC-NLX; read-out: Percent Binding Inhibition
# answer = value followed by unit

Solved entries (count: 8):
{"compound": "CC1CCC(C(C)C)C(OCC(O)CN2CCN(CCCN3CCOCC3)CC2)C1 (stereo not drawn) [Compound A0026]", "tested-system": "FLNA pentapeptide of SEQ ID NO: 1 (Bn-VAKGL) (Homo sapiens, UniProt P21333)", "inhibition at 1 µM": "49.2%"}
{"compound": "CS(=O)(=O)c1ccc(S(=O)(=O)N2CCOC23CCN(CC2CC2)CC3)cc1 [Compound C0126M]", "tested-system": "FLNA pentapeptide of SEQ ID NO: 1 (Bn-VAKGL) (Homo sapiens, UniProt P21333)", "inhibition at 1 µM": "67.3%"}
{"compound": "CC1CN(CC(O)COc2cccc(C(F)(F)F)c2)CC(C)O1 (stereo not drawn) [Compound A0051]", "tested-system": "FLNA pentapeptide of SEQ ID NO: 1 (Bn-VAKGL) (Homo sapiens, UniProt P21333)", "inhibition at 1 µM": "52.1%"}
{"compound": "CCCCN1CCC2(CC1)OCCN2S(=O)(=O)c1ccc(OC)cc1 [Compound C0102M]", "tested-system": "FLNA pentapeptide of SEQ ID NO: 1 (Bn-VAKGL) (Homo sapiens, UniProt P21333)", "inhibition at 1 µM": "56.6%"}
{"compound": "COc1c2c(cc3c1C(CC(O)CCc1ccccc1)N(C)CC3)OCO2 (stereo not drawn) [Compound B0051]", "tested-system": "FLNA pentapeptide of SEQ ID NO: 1 (Bn-VAKGL) (Homo sapiens, UniProt P21333)", "inhibition at 1 µM": "43.7%"}
{"compound": "CC1CN(CC(O)COc2cccc(N(C)C)c2)CC(C)O1 (stereo not drawn) [Compound A0042]", "tested-system": "FLNA pentapeptide of SEQ ID NO: 1 (Bn-VAKGL) (Homo sapiens, UniProt P21333)", "inhibition at 1 µM": "55.8%"}
{"compound": "COc1ccc(CN2CCC3(CC2)OCCN3S(=O)(=O)c2ccc(OC)cc2)cc1 [Compound C0038]", "tested-system": "FLNA pentapeptide of SEQ ID NO: 1 (Bn-VAKGL) (Homo sapiens, UniProt P21333)", "inhibition at 1 µM": "43.5%"}
{"compound": "OC(COc1cccc(F)c1)CN1CCc2ccccc2C1 (stereo not drawn) [Compound A0055]", "tested-system": "FLNA pentapeptide of SEQ ID NO: 1 (Bn-VAKGL) (Homo sapiens, UniProt P21333)", "inhibition at 1 µM": "41.8%"}

Turning now to a further record.
## Input Form field: reported inhibition at 1 µM of CC1CN(CC(O)COc2cccc(F)c2)CC(C)O1 (stereo not drawn) [Compound A0049]
## Output 49.3%

* * *

compounds and their reported MOR agonist activity, percent [35S]GTPγS binding at the stated compound concentration
# System: mu opiate receptor (MOR)
# test-summary: MOR agonist activity using [35S]GTPγS binding assay in striatal membranes
# Format: biochemical
# test-conditions: Series C-2; 1 μM compound + 1 μM β-FNA
Use % as the unit, but write only the number.

Solved entries (count: 3):
{"compound": "O=C1CN(Cc2ccccc2)C2(CCNCC2)N1 [Compound C0115M]", "tested-system": "mu opiate receptor (MOR)", "quantitative-result": 118.4}
{"compound": "CCCCN1CCC2(CC1)OCCN2S(=O)(=O)c1ccc(C(C)=O)cc1 [Compound C0101M]", "tested-system": "mu opiate receptor (MOR)", "quantitative-result": 174.8}
{"compound": "CC(=O)N1CCSC12CCN(S(=O)(=O)c1ccc([N+](=O)[O-])cc1)CC2", "tested-system": "mu opiate receptor (MOR)", "quantitative-result": 59.0}

Turning now to a further record.
## Input Form field: reported MOR agonist activity, percent [35S]GTPγS binding at the stated compound concentration of "O=[N+]([O-])c1ccc(S(=O)(=O)N2CCC3(CC2)NCCO3)cc1"
## Output 90.4

* * *

# Test system: mu opiate receptor (MOR)
# test-summary: MOR agonist activity using [35S]GTPγS binding assay in striatal membranes
# Format: biochemical
# test-conditions: Series C-1; 0.1 μM compound; [35S]GTPγS binding to Gαo, striatal membranes
Consider the cut-off 200%. If the recorded Concentration of FLNA-Binding Compound as Agonist 0.1 μM is strictly smaller, the label is true (1); if not, the label is false (0).

{"compound": "COc1ccc(NC(=O)N2CCC3(CC2)OCCN3C(=O)Nc2ccc(OC)cc2)cc1 [Compound C0151M]", "tested-system": "mu opiate receptor (MOR)", "group": "false (0)"}
{"compound": "CC(=O)c1ccc(S(=O)(=O)N2CCC3(CC2)OCCN3S(=O)(=O)c2ccc(C(C)=O)cc2)cc1", "tested-system": "mu opiate receptor (MOR)", "group": "false (0)"}
{"compound": "CC(C)c1ccc(S(=O)(=O)N2CCC3(CC2)OCCN3S(=O)(=O)c2ccc(C(C)C)cc2)cc1", "tested-system": "mu opiate receptor (MOR)", "group": "true (1)"}
{"compound": "O=S(=O)(c1cccs1)N1CCC2(CC1)OCCN2S(=O)(=O)c1cccs1 [Compound C0141M]", "tested-system": "mu opiate receptor (MOR)", "group": "true (1)"}
{"compound": "COc1ccc(S(=O)(=O)N2CCCC3(C2)OCCN3S(=O)(=O)c2ccc(OC)cc2)cc1 (centres unmarked) [Compound C0145M]", "tested-system": "mu opiate receptor (MOR)", "group": "true (1)"}

## Input For "O=S(=O)(c1ccc(Br)cc1F)N1CCC2(CC1)OCCN2S(=O)(=O)c1ccc(Br)cc1F" , is the recorded Concentration of FLNA-Binding Compound as Agonist 0.1 μM below the cut-off of 200%?
## Output true (1)

## Input Now the same for "COc1ccccc1S(=O)(=O)N1CCC2(CC1)OCCN2S(=O)(=O)c1ccccc1OC"
## Output true (1)

* * *

# Test system: mu opiate receptor (MOR)
# test-summary: MOR agonist activity using [35S]GTPγS binding assay in striatal membranes
# Type: biochemical
# test-conditions: Series C-2; 1 μM compound + 1 μM β-FNA
endpoint: MOR agonist activity, percent [35S]GTPγS binding at the stated compound concentration (%)
Use % as the unit, but write only the number.

## Input Form field: reported MOR agonist activity, percent [35S]GTPγS binding at the stated compound concentration of CN1CCC2(CC1)OCCN2S(=O)(=O)c1ccc(S(C)(=O)=O)cc1 [Compound C0106M]
## Output 117.2
